assay: Determination of the log P values by HPLC on a reversed phase column (C18); type: physicochemical; conditions: 43° C., EEC Directive 79/831 Annex V.A8
measurement_label: logP

{"compound": "CCc1cc(C)cc(C)c1CC(=O)NC(C)(CCOC)C(=O)OC (stereo not shown) [II-28]", "measurement_label": "logP", "assay_result": "logP 3.19"}
{"compound": "COCC(C)(NC(=O)Cc1c(C2CC2)cc(C)cc1C1CC1)C(=O)OC (stereo not shown) [II-27]", "measurement_label": "logP", "assay_result": "logP 3.19"}

----------
test system: Spring wheat; assay type: in vivo; details: 28 days after application; 50 g a.i./ha; post-emergence

{"compound": "CCc1cc(C)cc(OC)c1C1=C(OC(=O)C(C)C)C(C)(COC)NC1=O (racemic) [I-b-9]", "units_of_measure": "%", "Spring wheat observed (%)": 85}
{"compound": "CCc1cc(C)cc(C)c1C1=C(OC(=O)COC)C(C)(COC)NC1=O (racemic) [I-b-11]", "units_of_measure": "%", "Spring wheat observed (%)": 50}
{"compound": "CCc1cc(Cl)cc(OC)c1C1=C(O)C(C)(COC)NC1=O (racemic) [I-a-10]", "units_of_measure": "%", "Spring wheat observed (%)": 25}
{"compound": "CCc1cc(C)cc(Br)c1C1=C(O)C(C)(COC)NC1=O (racemic) [I-a-6]", "units_of_measure": "%", "Spring wheat observed (%)": 20}

----------
test system: Spring wheat; assay type: in vivo; settings: 28 days after application; 25 g a.i./ha; post-emergence
Measured Spring wheat observed (%) by item

{"compound": "CCc1cc(Cl)cc(OC)c1C1=C(O)C(C)(COC)NC1=O (racemic)", "Spring wheat observed (%)": 15}
{"compound": "CCc1cc(C)cc(OC)c1C1=C(OC(=O)C(C)C)C(C)(COC)NC1=O (racemic)", "Spring wheat observed (%)": 60}
{"compound": "CCc1cc(C)cc(C)c1C1=C(OC(=O)COC)C(C)(COC)NC1=O (racemic)", "Spring wheat observed (%)": 10}
{"compound": "CCc1cc(C)cc(C)c1C1=C(OC(=O)C(C)C)C(C)(COC)NC1=O (racemic)", "Spring wheat observed (%)": 10}
